Sourced from PubChem BioAssay AID651789

Assay: Acumen qHTS Assay for Inhibitors of the mTORC1 Signaling Pathway in WT MEF Cells: Hit Validation; further: nearly all actives have a fitted effect of over 60% in size
Settings: Acumen imaging; series mostly up to 37.3 µM
Records with an inconclusive call do not appear. Activity calls are given as the source filed them. The call rests on the fitted dose curve; in most records, active means well fitted inhibition curve with a large enough effect; inconclusive means small, poorly fitted or top-dose-only effect; inactive means no such curve, though single readings can be large or run the other way.
Field 'call' accepts active, inactive

Input: # fetch the recorded call for COc1ccc(NC(=O)CSc2nc3ccccc3nc2N2CCC(C)CC2)cc1 here
Output: inactive

Input: # fetch the recorded call for CC(C)(C)C1CCc2c(sc(NC(=O)C3c4ccccc4Oc4ccccc43)c2C(N)=O)C1 (stereo unspecified) here
Output: inactive

Input: # fetch the recorded call for CCN1C(=O)c2ccccc2Sc2ccc(NC(=O)Cc3ccc(OC)cc3)cc21 here
Output: inactive

Input: # fetch the recorded call for COc1ccccc1C(=O)Nc1ccc2nc(N3CCC(C)CC3)cc(C)c2c1 here
Output: inactive

Input: # fetch the recorded call for CCn1c(=O)sc2cc(NS(=O)(=O)c3ccc(F)c(C)c3)ccc21 here
Output: inactive

Input: # fetch the recorded call for COc1cc(C(=O)NC(c2ccccc2Cl)c2cc(Cl)c3cccnc3c2O)cc(OC)c1OC (stereo unspecified) here
Output: inactive

Input: # fetch the recorded call for COc1cccc(-n2c(-c3ccc(C)cc3)cc3c2CC(C)(C)CC3=O)c1 here
Output: inactive

Input: # fetch the recorded call for Cc1cc(NCc2ccc(Cl)cc2)n2cnnc2n1 here
Output: inactive

Input: # fetch the recorded call for O=C(NCc1ccccc1Cl)C(=O)NCC(c1cccs1)S(=O)(=O)c1cccs1 (stereo unspecified) here
Output: inactive

Input: # fetch the recorded call for COc1ccc(NC(=O)CSc2nc3ccccc3n2Cc2cccc(OC)c2)cc1 here
Output: inactive

Input: # fetch the recorded call for Cc1cccc(Nc2ncc(NC(=O)c3cccc(F)c3)c(Nc3cccc(C)c3)n2)c1 here
Output: active

Input: # fetch the recorded call for COc1ccccc1NC(=O)C1=C(C)Nc2nc(SCc3ccccc3)nn2C1c1cccs1 (stereo unspecified) here
Output: inactive

Input: # fetch the recorded call for CCOC(=O)c1ccc2ncc(C(=O)OCC)c(NCCc3ccc(OC)c(OC)c3)c2c1 here
Output: inactive

Input: # fetch the recorded call for CCN(c1ccccc1)S(=O)(=O)c1cc(C(=O)Nc2ccc(Br)cc2)ccc1F here
Output: active

Input: # fetch the recorded call for COc1ccc(Cn2c(C(=O)O)c(CNCc3ccc(SC)cc3)c3ccc(OC)cc32)cc1 here
Output: inactive

Input: # fetch the recorded call for COc1ccc(N2CCN(C(=O)C(C)n3nc(C)c4sc5ccccc5c4c3=O)CC2)cc1 (stereo unspecified) here
Output: inactive

Input: # fetch the recorded call for Cc1ccc2sc(N(CCCN(C)C)C(=O)c3ccco3)nc2c1C here
Output: inactive

Input: # fetch the recorded call for CCc1ccc(C(=O)CC2(O)C(=O)N(CCc3ccccc3)c3ccc(Cl)cc32)cc1 (stereo unspecified) here
Output: inactive

Input: # fetch the recorded call for CCCOc1cccc(C2c3c(-c4ccccc4O)n[nH]c3C(=O)N2Cc2ccco2)c1 (stereo unspecified) here
Output: inactive

Input: # fetch the recorded call for CCc1ccc2ncc(S(=O)(=O)c3ccc(Cl)cc3)c(N3CCN(CC)CC3)c2c1 here
Output: inactive

Input: # fetch the recorded call for COc1ccccc1NC(=O)CSc1ccc(-c2ccccn2)nn1 here
Output: inactive

Input: # fetch the recorded call for COc1cc(C)ccc1OCCn1c(-c2ccc(Cl)cc2)nc2ccccc2c1=O here
Output: inactive

Input: # fetch the recorded call for Cc1ccc(NC(=O)Nc2cccs2)c(C)c1 here
Output: inactive

Input: # fetch the recorded call for CCOc1ccc(NC(=O)CSc2oc(-c3ccc(F)cc3)nc2S(=O)(=O)c2ccc(C)cc2)cc1 here
Output: active

Input: # fetch the recorded call for Brc1ccc(Nc2c3c(nc4nncn24)CCC3)cc1 here
Output: inactive

Input: # fetch the recorded call for COc1ccc(CCNC(=O)c2ccc3c(c2)N(Cc2ccccc2)CCS3)cc1OC here
Output: inactive

Input: # fetch the recorded call for Cc1c(C(=O)OCc2ccccc2)[nH]c2c1C(=O)CC(c1ccc(Cl)cc1)C2 (stereo unspecified) here
Output: active

Input: # fetch the recorded call for COc1cc(NC(=O)c2cccc3c2C(=O)N(C2CCCCC2)C3)cc(OC)c1OC here
Output: inactive

Input: # fetch the recorded call for CCS(=O)(=O)c1ncc(Cl)c(C(=O)N2CCN(c3cccc(Cl)c3)CC2)n1 here
Output: active

Input: # fetch the recorded call for Cc1ccc(C(=O)CC2(O)C(=O)N(Cc3ccccc3)c3ccc(Br)cc32)cc1 (stereo unspecified) here
Output: inactive

Input: # fetch the recorded call for Cc1cccc(NC(=O)c2nc(S(C)(=O)=O)ncc2Cl)c1 here
Output: active
